SUBJECT_OF_TEST: T1, CD32a-H131 (FcgRIIa-H131) (Homo sapiens, UniProt P12318)
T1 sequence (P12318 34-217 limits assumed): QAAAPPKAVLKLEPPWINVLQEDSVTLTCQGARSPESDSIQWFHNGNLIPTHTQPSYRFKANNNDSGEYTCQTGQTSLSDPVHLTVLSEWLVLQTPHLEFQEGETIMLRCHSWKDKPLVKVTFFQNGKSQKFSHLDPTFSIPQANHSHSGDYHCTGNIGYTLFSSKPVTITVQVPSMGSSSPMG
METHOD_SUMMARY: SPR, antibody binding to anti-his Fab captured FcgR-his (% Rmax)
CONDITION_DESCRIPTION: 1 μM antibody
Procedure: The binding of antibodies to Fc gamma receptors (FcγRs or FcgRs) was studied using biosensor technologies including Biacore surface plasmon resonance (SPR) and Fortebio Biolayer Interferometry (BLI). […] Various his-tagged FcgRs (7 ug/ml) were captured via the C-terminal his-tag using a contact time of 30 s at 10 ul/min, and the binding of 1.0 μM antibody was evaluated in a running buffer of 10 mM NaPO4, 130 mM NaCl, 0.05% p20 (PBS-T) pH 7.1. […]
MEASUREMENT_NAME: % Rmax hCD32a-H131

// input: 3 molecules below; output: % Rmax hCD32a-H131 for each
1. mAb12-IgG2.3 (protein, left off: another chain or arm of the molecule) constant: ASTKGPSVFPLAPCSRSTSESTAALGCLVKDYFPEPVTVSWNSGALTSGVHTFPAVLQSSGLYSLSSVVTVPSSNFGTQTYTCNVDHKPSNTKVDKTVERKSCVECPPCPAPPVAGPSVFLFPPKPKDTLMISRTPEVTCVVVDVSHEDPEVQFNWYVDGVEVHNAKTKPREEQFNSTFRVVSVLTVVHQDWLNGKEYKCKVSNKGLPAPIEKTISKTKGQPREPQVYTLPPSREEMTKNQVSLTCLVKGFYPSDIAVEWESNGQPENNYKTTPPMLDSDGSFFLYSKLTVDKSRWQQGNVFSCSVMHEALHNHYTQKSLSLSPGK
2. mAb11-IgG2.3 (protein, left off: another chain or arm of the molecule) constant: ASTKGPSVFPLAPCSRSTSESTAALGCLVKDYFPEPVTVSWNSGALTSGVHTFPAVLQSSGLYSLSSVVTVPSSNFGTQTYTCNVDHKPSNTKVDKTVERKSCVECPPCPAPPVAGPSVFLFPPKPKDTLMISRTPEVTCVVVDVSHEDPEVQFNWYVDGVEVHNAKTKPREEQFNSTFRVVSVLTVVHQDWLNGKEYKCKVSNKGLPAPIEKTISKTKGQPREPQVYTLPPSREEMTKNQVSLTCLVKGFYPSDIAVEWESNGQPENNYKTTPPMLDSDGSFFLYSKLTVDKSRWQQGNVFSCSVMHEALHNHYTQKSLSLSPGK
3. mAb4-IgG2.3 (protein, left off: another chain or arm of the molecule) constant: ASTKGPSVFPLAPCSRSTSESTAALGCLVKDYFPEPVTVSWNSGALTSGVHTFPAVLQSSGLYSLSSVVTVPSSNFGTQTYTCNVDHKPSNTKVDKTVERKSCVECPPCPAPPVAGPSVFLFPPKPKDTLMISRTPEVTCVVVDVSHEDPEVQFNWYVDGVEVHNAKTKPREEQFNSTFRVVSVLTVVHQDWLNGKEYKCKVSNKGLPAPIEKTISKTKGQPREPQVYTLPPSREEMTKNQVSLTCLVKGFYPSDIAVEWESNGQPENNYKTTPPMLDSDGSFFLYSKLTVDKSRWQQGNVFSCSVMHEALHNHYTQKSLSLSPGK

39%
44%
39%
